# Assay Method Text: Metabolic stability in mouse liver microsomes at 1 uM in presence of NADPH generating system by LC/MS/MS analysis
# Type: ADME, Microsome
# Measurement Parameters: read-out: Stability
Property Label: microsomal CLint at 1 µM (µL/min/mg)

A. COc1cc(C)[nH]c(=O)c1CN1CCN(C)c2c(Cl)cc(C(O)C3CCOCC3)c(Cl)c2C1=O (stereo unspecified)
B. COc1cc(C)n(C)c(=O)c1CN1CCc2c(Cl)cc(-c3c(C)noc3C)c(Cl)c2C1=O
Response body: label of entry with the larger microsomal CLint at 1 µM; valid values A , B . Pick one; state its label.
B
(B: 656 µL/min/mg, A: 91 µL/min/mg)

A. COc1cc(C)[nH]c(=O)c1CN1CCN(C)c2c(Cl)cc(-c3ccc(CN4CCOCC4)cc3)c(Cl)c2C1=O
B. COc1cc(C)[nH]c(=O)c1CN1CCN(C)c2c(Cl)cc(-c3c(C)noc3C)c(Cl)c2C1=O
C. Cc1cc(C)c(CN2CCc3c(Cl)cc(-c4c(C)noc4C)c(Cl)c3C2=O)c(=O)[nH]1
D. Cc1noc(C)c1-c1cc(Cl)c2c(c1Cl)C(=O)N(Cc1c(C(F)(F)F)cc(C)n(C)c1=O)CC2
Task field, ranking: reported microsomal CLint at 1 µM, descending order. Provide the ranking by listing each label in its place in the requested order.
D, C, B, A
(D: 592 µL/min/mg, C: 253 µL/min/mg, B: 112 µL/min/mg, A: 41 µL/min/mg)

I. COc1cc(C)[nH]c(=O)c1CN1CCN(C)c2c(Cl)cc(-c3ccc(Cl)cc3F)c(Cl)c2C1=O
II. COc1cc(C)[nH]c(=O)c1CN1CCN(C)c2c(Cl)cc(-c3ccc(N4CCOCC4)cc3)c(Cl)c2C1=O
Hey, between I and II which has a smaller measured microsomal CLint at 1 µM? Provide the label of your selected option as the answer.
II

a. COc1cc(C)[nH]c(=O)c1CN1CCN(C)c2c(Cl)cc(C(C)C3CCOCC3)c(Cl)c2C1=O (stereo unspecified)
b. COc1cc(C)[nH]c(=O)c1CN1CCNc2c(Cl)cc(-c3c(C)noc3C)c(Cl)c2C1=O
I would appreciate it if you could say which entry, a or b , has the lower microsomal CLint at 1 µM value. Respond using the label that marks the chosen record.
b
(b: 123 µL/min/mg, a: 562 µL/min/mg)
